target: N-methyl-L-phenylalanine dehydrogenase (Pseudomonas putida); construct: made in house; test: Substrate specificity for keto acids with NADPH as coenzyme (Example 6); format: biochemical, Pseudomonas putida ATCC 12633; settings: keto acid 10 mM, NADPH 0.2 mM, methylamine pH 10 60 mM, 37° C.; β-phenylpyruvic acid = 100%
Below, each entry is listed alongside its reported Relative activity.
Give the value, in units of %, as a plain number.

Please review the following examples before continuing.
| compound | assay_target | Relative activity (%) |
| --- | --- | --- |
| CCCCC(=O)C(=O)O [2-ketohexanoic acid] | N-methyl-L-phenylalanine dehydrogenase (Pseudomonas putida) | 174 |
| CCCCCCC(=O)C(=O)O [2-ketooctanoic acid] | N-methyl-L-phenylalanine dehydrogenase (Pseudomonas putida) | 25 |

Lookup: Value lookup for Relative activity; key = O=C(O)C(=O)Cc1ccccc1 [phenylpyruvic acid]
Found: 100

Lookup: Value lookup for Relative activity; key = O=C(O)C(=O)CF [β-fluoropyruvic acid]
Found: 90

Lookup: Value lookup for Relative activity; key = CC(=O)C(=O)O [pyruvic acid]
Found: 334

Lookup: Value lookup for Relative activity; key = CCCC(=O)C(=O)O [2-keto-n-valeric acid]
Found: 53

Lookup: Value lookup for Relative activity; key = CCC(=O)C(=O)O [2-ketobutyric acid]
Found: 98

====

target: N-methyl-L-phenylalanine dehydrogenase (Pseudomonas putida); construct: made in house; experiment: Substrate specificity for keto acids with NADH as coenzyme (Example 11); assay type: biochemical, Pseudomonas putida ATCC 12633; conditions: keto acid 40 mM (β-phenylpyruvic acid 30 mM), NADH 0.3 mM, methylamine 180 mM, pH 10.0, 37° C.; pyruvic acid = 100%
Kindly apply the following: YES if Relative activity is less than 8%, NO in every other case.

Completed entries (count: 3):
| structure_as_smiles | classification |
| --- | --- |
| CC(=O)C(=O)O | NO |
| O=C(O)C(=O)Cc1ccccc1 | YES |
| CCCC(=O)C(=O)O | YES |

Lookup: Below 8% on Relative activity? Entry O=C(O)C(=O)CF
Found: YES

Lookup: Below 8% on Relative activity? Entry CCCCC(=O)C(=O)O
Found: NO

Lookup: Below 8% on Relative activity? Entry CCC(=O)C(=O)O
Found: NO

====

target: N-methyl-L-phenylalanine dehydrogenase (Pseudomonas putida, UniProt Q5FB93); construct: made in house; test: Substrate specificity for amines with NADPH as coenzyme (Example 14); format: biochemical, Pseudomonas putida ATCC 12633; details: amine 60 mM, NADPH 0.2 mM, β-phenylpyruvic acid 10 mM, 37° C.; methylamine = 100%
Sequence (Q5FB93 whole entry): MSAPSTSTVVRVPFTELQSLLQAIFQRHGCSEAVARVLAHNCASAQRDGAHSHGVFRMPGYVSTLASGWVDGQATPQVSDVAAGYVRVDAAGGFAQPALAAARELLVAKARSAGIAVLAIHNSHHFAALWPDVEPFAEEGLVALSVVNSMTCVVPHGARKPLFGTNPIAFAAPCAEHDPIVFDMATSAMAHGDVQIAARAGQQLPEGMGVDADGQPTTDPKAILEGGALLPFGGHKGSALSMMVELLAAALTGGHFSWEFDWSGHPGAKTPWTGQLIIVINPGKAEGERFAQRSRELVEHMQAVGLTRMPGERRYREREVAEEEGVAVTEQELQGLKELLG
Below, each entry is listed alongside its reported Relative activity.
Give the value, in units of %, as a plain number.

Please review the following examples before continuing.
| structure_as_smiles | test_readout | value_unit | value_observed |
| --- | --- | --- | --- |
| CN | Relative activity | % | 100 |
| CCN | Relative activity | % | 1.5 |
| NC1CCCCC1 | Relative activity | % | 1.3 |
| CNC | Relative activity | % | 1.4 |
| CCCN | Relative activity | % | 1.1 |

As a next step, examine the compound that follows.
Lookup: Value lookup for Relative activity; key = CC(C)N
Found: 1.5

Source: patent US7452704B2
